- experiment_description: solvent given as SMILES
- experimental_setup: in CCCCCCCC
Field 'label' (enum: 1 / 0). Set to 1 when solvation free energy, 298 K is strictly under -20 kJ/mol; else 0.

Examples from the recorded data:
c1ccc2c(c1)Nc1ccccc1S2	1
C1CCCCC1	0
O=[N+]([O-])c1cc(Cl)ccc1Cl	1
Cc1cc(C)cc(O)c1	1
CC(C)CC(C)C	0

Prompt: solvation free energy, 298 K under -20 kJ/mol? Item: S=C=S
Completion: 0

Prompt: Please determine if O=c1c2ccccc2sc2ccccc12 is below -20 kJ/mol in terms of solvation free energy, 298 K.
Completion: 1

Prompt: solvation free energy, 298 K strictly < -20 kJ/mol for this compound? CCCC(O)C(C)C (centres undefined)
Completion: 1

Prompt: Quick check: solvation free energy, 298 K of CCCC(C)(C)O under -20 kJ/mol?
Completion: 0

Prompt: Lab log: compare recorded solvation free energy, 298 K with -20 kJ/mol; is it strictly lower for CC(C)(C)Cl ?
Completion: 0

---

- experiment_description: solvent given as SMILES
- experimental_setup: in CC(C)OC(C)C
measured_attribute: solvation free energy, 298 K

Cc1ccccc1C(=O)O	-8.56 kcal/mol
ClCCCl	-3.88 kcal/mol
Fc1c(F)c(F)c(F)c(F)c1F	-4.13 kcal/mol
CCCO	-4.39 kcal/mol

Prompt: Which solvation free energy, 298 K is reported for this compound? O=C(O)c1cccc(Cl)c1
Completion: -10.1 kcal/mol

Prompt: What measured solvation free energy, 298 K goes with CCCC(C)C ?
Completion: -3.78 kcal/mol

Prompt: What value of solvation free energy, 298 K has been reported for the following compound? CC(C)CC(C)(C)C
Completion: -4.57 kcal/mol

Prompt: If you can, please state the reported solvation free energy, 298 K value of Cc1ccccc1 .
Completion: -4.89 kcal/mol

---

- experiment_description: solvent given as SMILES
- experimental_setup: in CCCCCCO
measured_attribute: solvation free energy, 298 K (kcal/mol)
Give the quantity in kcal/mol, number only.

[N-]=[N+]=O	-0.49
CC(C(=O)O)c1ccc(-c2ccccc2)c(F)c1 (stereo not drawn)	-15.6

With those in mind, consider the next compound.
Prompt: Quick one: solvation free energy, 298 K of FS(F)(F)(F)(F)F ?
Completion: 0.34

---

Recorded measurements of solvation free energy, 298 K, one per entry
- experiment_description: solvent given as SMILES
- experimental_setup: in Clc1ccccc1
Lab book: enter the figure in kJ/mol, no units written.

CCBr	-14.7
CCCCCO	-22.9

Prompt: What value of measured solvation free energy, 298 K is listed for CC(C)CO ?
Completion: -17.8

Prompt: Quick one: solvation free energy, 298 K for COC ?
Completion: -9.12

Prompt: Need solvation free energy, 298 K, item O=C=O
Completion: -2.09

Prompt: Find the recorded solvation free energy, 298 K belonging to [2H][2H] and report it.
Completion: 6.9

Prompt: Quick one: solvation free energy, 298 K of II ?
Completion: -24.3

Prompt: Recorded solvation free energy, 298 K of C=C , please.
Completion: -2.55

Prompt: Value lookup for solvation free energy, 298 K; key = OC(CCl)CCl
Completion: -25.2

Prompt: Quick one: solvation free energy, 298 K for C=CCCC ?
Completion: -12.6

Prompt: Fill in: solvation free energy, 298 K of C1CCCCC1 is ___
Completion: -17.7

Prompt: So what's the measured solvation free energy, 298 K for this one? CN(C)C(=O)Nc1ccc(Cl)c(Cl)c1
Completion: -56.7

Prompt: Quick one: solvation free energy, 298 K for CCCC(C)C ?
Completion: -15.1

Prompt: Quick check: solvation free energy, 298 K of CCCO ?
Completion: -16

Prompt: What measured solvation free energy, 298 K goes with O=C(C(=O)c1ccccc1)c1ccccc1 ?
Completion: -52

Prompt: GET /values?readout=solvation free energy, 298 K&item= CC(C)CC(C)C
Completion: -16.9

---

- experiment_description: solvent given as SMILES
- experimental_setup: in CC(=O)N(C)C
// classify: if (solvation free energy, 298 K < -5 kcal/mol) t else f

CCC(C)C	f
c1ccc2c(c1)-c1cccc3cccc-2c13	t
OCC(F)(F)F	t
C1=CCCCC1	f

Prompt: Quick check: does S have solvation free energy, 298 K under -5 kcal/mol?
Completion: f

Prompt: State whether -5 kcal/mol exceeds solvation free energy, 298 K recorded for COC(C)=O .
Completion: f

Prompt: Hello, is solvation free energy, 298 K of the following compound strictly smaller than -5 kcal/mol? CC(C)C=O
Completion: f

Prompt: Please indicate whether the reported solvation free energy, 298 K of C=C is strictly below -5 kcal/mol.
Completion: f

Prompt: Decide: solvation free energy, 298 K of COC=O strictly below -5 kcal/mol?
Completion: f

---

Reported solvation free energy, 298 K values are given for each entry in this list.
- experiment_description: solvent given as SMILES
- experimental_setup: in ClC(Cl)Cl
I only need the number, in kcal/mol, no unit after it.

Below are worked cases with known answers.
II	-5.73
CN(C)C	-3.9
c1cc2c3c(cccc3c1)CC2	-9.84
ClCCl	-3.62

Prompt: Fill in the blank: the reported solvation free energy, 298 K of CN(C)C(=O)Nc1ccc(Cl)cc1 is ____.
Completion: -13.3

---

- experiment_description: solvent given as SMILES
- experimental_setup: in CC(C)CO
measured_attribute: solvation free energy, 298 K (kcal/mol)
Write it as a number; the unit kcal/mol goes unstated.

Check out these entries, answers already filled in.
O=C=O	-0.37
COC	-2.1
CCCOCCC	-4.17
c1ccc2c(c1)-c1cccc3cccc-2c13	-11.1

# next molecule below
Prompt: Would you mind telling me what solvation free energy, 298 K value was observed for Cc1ccccc1C(=O)O ?
Completion: -8.82

---

- experiment_description: solvent given as SMILES
- experimental_setup: in OCCO
Measured solvation free energy, 298 K, listed per entry.
Hi! Could you send only the number? It should be in kcal/mol, unit omitted.

Known results for compounds:
CC(C)CC(C)(C)C	-1.05
C=C	0.5
C=C(C)C(=C)C	-1.73
Cc1ccc(C)cc1	-3.4
c1ccccc1	-2.76

Turning to the following compound.
Prompt: # get_value(readout='solvation free energy, 298 K', item= S )
Completion: -1.17

---

- experiment_description: solvent given as SMILES
- experimental_setup: in CO
Use met when the recorded solvation free energy, 298 K is no lower than -8 kcal/mol; use not met when it is lower.

Check out these entries, answers already filled in.
O=C(O)c1cccc(C(=O)O)c1	not met
Cc1ccc(C(C)C)c(O)c1	not met
CCCCc1ccccc1	met
CC(C)CO	met
C=C(C)C1CCC2(CO)CCC3(C)C(CCC4C5(C)CCC(O)C(C)(C)C5CCC43C)C12 (stereo not drawn)	not met

Prompt: For this compound, is measured solvation free energy, 298 K -8 kcal/mol or higher? CCCCCCCO
Completion: met

Prompt: For this compound, is measured solvation free energy, 298 K -8 kcal/mol or higher? CCCO
Completion: met

Prompt: # bool: solvation free energy, 298 K of C1CCCC1 >= -8 kcal/mol
Completion: met

---

- experiment_description: solvent given as SMILES
- experimental_setup: in CN1CCCCC1=O
Use -4 kcal/mol as the dividing line for solvation free energy, 298 K, with the line itself on the satisfied side and lower values as not satisfied.

Prompt: Could you please find out whether c1ccccc1 has solvation free energy, 298 K that meets -4 kcal/mol or exceeds it?
Completion: not satisfied

Prompt: State whether the measured solvation free energy, 298 K reaches -4 kcal/mol, counting equality as reaching it, for CC=O
Completion: satisfied

Prompt: Can C=CCCC be said to have solvation free energy, 298 K at or above -4 kcal/mol?
Completion: satisfied

---

- experiment_description: solvent given as SMILES
- experimental_setup: in CCOC(C)=O
Response field class: enum, chosen by comparing solvation free energy, 298 K against Low (below -10 kcal/mol), Medium (-10 kcal/mol to below -4 kcal/mol), High (-4 kcal/mol or more)

Example cases with answers are listed next.
CCBr	High
c1cc2c3c(cccc3c1)CC2	Medium
C=C(C)C1CCC2(CO)CCC3(C)C(CCC4C5(C)CCC(O)C(C)(C)C5CCC43C)C12 (configuration not stated)	Low
O=C1c2ccccc2C(=O)c2c(Cl)cccc21	Low
CC(=O)Oc1ccccc1C(=O)O	Low

Prompt: Band of Clc1ccccc1 ?
Completion: Medium

Prompt: Consider COC(=O)c1ccc(O)cc1 . To which solvation free energy, 298 K class does it belong?
Completion: Low

Prompt: Class (by measured solvation free energy, 298 K) for CC(C)CC(C)C
Completion: High

Prompt: Please classify: O=C(C(=O)c1ccccc1)c1ccccc1
Completion: Low

Prompt: Could you tell me which band C=CCCCC=C belongs to?
Completion: Medium

Prompt: Exam item: assign CC(C(=O)O)c1ccc(-c2ccccc2)c(F)c1 (configuration not stated) to the correct category.
Completion: Low

Prompt: For this compound, which bin applies? CC(C)(C)Cl
Completion: High

Prompt: Lab note: which band did O=C(O)c1cccc(Cl)c1 land in?
Completion: Low
